- assay_system: CYP450 (Homo sapiens, UniProt P04798+P05177+P05181+P08684+P10632+P10635+P11509+P11712+P13584+P20813+P20815+P20853+P24462+P24903+P33260+P33261+P51589+P78329+P98187+Q02928+Q08477+Q16678+Q16696+Q5TCH4+Q6VVX0+Q7Z449+Q8TAV3+Q96SQ9+Q9HB55)
- experiment_notes: Inhibition of CYP450 in human liver microsomes at <1 uM by cocktail-mixture based assay relative to control
- Type: ADME, Microsome
- Set-up: dose or concentration left out as unconfirmed
- condition_description: probe cocktail mixture
parameter_measured: inhibition

C=C(C)[C@@H]1CCC(C)=C[C@H]1c1c(O)cc(CCCCC)cc1O | > 50%
